system: Staphylococcus epidermidis; test: Antibacterial activity against methicillin resistant Staphylococcus epidermidis clinical isolate by broth microdilution method; assay type: functional
Quick list: MIC90 per entry.
A number alone suffices; assume µg/mL.

CCCCCCCCCC(=O)N[C@@H](Cc1c[nH]c2ccccc12)C(=O)N[C@H](CC(N)=O)C(=O)N[C@@H](CC(=O)O)C(=O)N[C@@H]1C(=O)NCC(=O)N[C@@H](CCCN)C(=O)N[C@@H](CC(=O)O)C(=O)N[C@H](C)C(=O)N[C@@H](CC(=O)O)C(=O)NCC(=O)N[C@H](CO)C(=O)N[C@@H]([C@H](C)CC(=O)O)C(=O)N[C@@H](CC(=O)c2ccccc2N)C(=O)O[C@@H]1C; 1

Task item: Which measured MIC90 value corresponds to CCCCCCCCCCNCCN[C@@]1(C)C[C@H](O[C@H]2[C@H](Oc3c4cc5cc3Oc3ccc(cc3Cl)[C@@H](O)[C@@H](NC(=O)[C@@H](CC(C)C)NC)C(=O)N[C@@H](CC(N)=O)C(=O)N[C@H]5C(=O)N[C@H]3C(=O)N[C@H](C(=O)N[C@H](C(=O)O)c5cc(O)c(CNCP(=O)(O)O)c(O)c5-c5cc3ccc5O)[C@H](O)c3ccc(c(Cl)c3)O4)O[C@H](CO)[C@@H](O)[C@@H]2O)O[C@@H](C)[C@H]1O [TELAVANCIN] ?
Reply: 1

Task item: Which measured MIC90 value corresponds to `CC(=O)N[C@@H]1[C@H](Oc2c3cc4cc2Oc2ccc(cc2Cl)[C@@H](O[C@@H]2O[C@@H](CO)[C@@H](O)[C@H](O)[C@@H]2NC(C)=O)[C@@H]2NC(=O)[C@H](NC(=O)[C@@H]4NC(=O)[C@H]4NC(=O)[C@@H](Cc5ccc(c(Cl)c5)O3)NC(=O)[C@H](N)c3ccc(O)c(c3)Oc3cc(O)cc4c3)c3ccc(O)c(c3)-c3c(O[C@H]4O[C@H](CO)[C@@H](O)[C@@H](O)[C@@H]4O)cc(O)cc3[C@@H](C(=O)O)NC2=O)O[C@@H](CO)[C@@H](O)[C@@H]1O` ?
Reply: 16

Task item: Which measured MIC90 value corresponds to CC(=O)NC[C@H]1CN(c2ccc(N3CCOCC3)c(F)c2)C(=O)O1 [LINEZOLID] ?
Reply: 1
